EC50 reference
test: inhibitors of intracellular T. cruzi replication, confirmation, NIH3T3 host cells, beta-gal luminescence (AID 2044); assay type: functional, cell-based;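 also: intracellular parasites grown in NIH/3T3 mouse fibroblasts as host cells; luminescent beta-galactosidase reporter signal from transgenic T. cruzi replicating inside host cells; inhibitors lower the luminescence signal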
Activity calls are given as the source filed them.
Observed Property: EC50

# Smiles Input, Obs Value
rows = [
    ("CCOc1cc(/C=N/NC(=O)Cn2nc([N+](=O)[O-])cc2C)cc(Br)c1OCc1ccccc1C", "2320 nM (active)"),
    ("COc1ccc(Nc2nc(-c3cccs3)nc3ccccc23)cc1S(=O)(=O)N1CCOCC1", "1250 nM (active)"),
    ("CCN1CCN(c2ccc(NC(=O)c3ccc([N+](=O)[O-])o3)cc2Cl)CC1", "> 30000 nM (not active)"),
    ("CCCCCCCCCn1c2c(c(=N)c3c1CCC3)CCCC2", "< 100 nM (active)"),
    ("Cc1nn(Cc2cccc(C(=O)Nc3ccn(Cc4c(F)c(F)cc(F)c4F)n3)c2)c(C)c1[N+](=O)[O-]", "882 nM (active)"),
    ("CCc1cccc(Nc2c([N+](=O)[O-])cc(C(=O)N3CC(=O)Nc4ccccc43)cc2[N+](=O)[O-])c1", "1100 nM (active)"),
    ("O=C(Nc1ccc(Br)cc1)c1cc([N+](=O)[O-])cc([N+](=O)[O-])c1", "190 nM (active)"),
    ("Cn1nc([N+](=O)[O-])nc1Oc1ccccc1", "459 nM (active)"),
    ("CNCCCCOc1ccc(C(C)(C)C)cc1Cl", "834 nM (active)"),
    ("Cc1cccc2cc(CN(Cc3ccco3)C(=O)Nc3cccc(C#N)c3)c(Cl)nc12", "1940 nM (active)"),
]

====

Cytochrome P450 2D6 (Homo sapiens, UniProt P10635): reported AC50 for various compounds.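 Also: CYP2D6 member of a cytochrome P450 panel assay.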
Sequence (P10635 whole entry): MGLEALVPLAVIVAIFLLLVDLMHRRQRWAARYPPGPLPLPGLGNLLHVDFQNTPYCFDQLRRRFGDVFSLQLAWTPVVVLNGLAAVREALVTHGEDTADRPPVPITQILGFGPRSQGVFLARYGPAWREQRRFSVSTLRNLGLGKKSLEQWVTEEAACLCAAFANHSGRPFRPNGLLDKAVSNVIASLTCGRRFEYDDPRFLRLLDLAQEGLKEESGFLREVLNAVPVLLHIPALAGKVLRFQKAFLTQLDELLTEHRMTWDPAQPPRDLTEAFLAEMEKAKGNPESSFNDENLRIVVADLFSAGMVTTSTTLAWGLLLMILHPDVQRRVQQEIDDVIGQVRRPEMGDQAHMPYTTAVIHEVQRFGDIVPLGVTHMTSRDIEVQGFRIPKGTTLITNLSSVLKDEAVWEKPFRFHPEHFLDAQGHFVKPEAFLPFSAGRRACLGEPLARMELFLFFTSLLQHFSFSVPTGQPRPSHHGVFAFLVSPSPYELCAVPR
Observed Property: AC50

# Compound, Observed Property, Obs Value
records = [
    ("Cc1cccc(CNc2ccnc(-c3ccoc3)n2)c1", "AC50", "31.6 µM (inconclusive)"),
    ("O=c1c(-c2ccc(F)cc2)nc2cnc(N3CCNCC3)nc2n1Cc1cccs1", "AC50", "20 µM (inconclusive)"),
    ("Cn1nc(C(F)(F)F)c(C(=O)Nc2ccc(F)cc2F)c1Sc1ccc(C(F)(F)F)cc1", "AC50", "14.1 µM (inconclusive)"),
    ("CC(=O)N1CCC[C@@]2(CCN(c3ncccn3)C2)C1", "AC50", "15.8 µM (inconclusive)"),
    ("CCN(CC)CCNC(=O)COc1ccc(OC)cc1 [MEFEXAMIDE]", "AC50", "12.6 µM (inconclusive)"),
    ("COc1ccc(CNC(=O)C2CC(c3ccc(OC)cc3)=NO2)cc1 (configuration not stated)", "AC50", "8.91 µM (inconclusive)"),
    ("COC1(C[S+]([O-])c2ccccc2)CCN(CCc2c[nH]c3ccc(F)cc23)CC1 (configuration not stated)", "AC50", "15.8 µM (inconclusive)"),
    ("CC(C)OC(=O)C1=C2SCC(=O)N2C(N)=C(C#N)C1", "AC50", "25.1 µM (inconclusive)"),
    ("Cc1nn(-c2ccc(F)cc2)c(O)c1C(c1cccc(O)c1)c1c(C)[nH]n(-c2ccc(F)cc2)c1=O (configuration not stated)", "AC50", "28.2 µM (inconclusive)"),
    ("O=C(c1ccccc1Nc1ccc(SC(F)F)cc1)N1CCCCC1", "AC50", "1.12 µM (inconclusive)"),
    ("O=C(c1ccncc1)N1CCC2(CCCN(c3ccc(-c4ccccc4)cc3)C2)CC1", "AC50", "12.6 µM (inconclusive)"),
    ("FC(F)(F)c1ccc(N2CCOCC2)c(Nc2nc3ccccc3n3cnnc23)c1", "AC50", "28.2 µM (inconclusive)"),
    ("Clc1cccc(/C=N\\C=N/c2cccc(Cl)c2)c1", "AC50", "25.1 µM (inconclusive)"),
    ("CN1CCc2c(cc(O)c(O)c2Cl)[C@H](c2cccc(Cl)c2)C1", "AC50", "31.6 µM (inconclusive)"),
    ("COc1cc2c(cc1OC)C(CCN)=NCC2", "AC50", "1.58 µM (inconclusive)"),
    ("OC[C@@H]1O[C@@H](n2cnc3c(N[C@H]4CCC[C@@H]4O)ncnc32)[C@H](O)[C@H]1O", "AC50", "15.8 µM (inconclusive)"),
    ("COc1ccccc1/C=C/C=N/N1CCN(Cc2ccc(Cl)cc2)CC1.Cl", "AC50", "8.91 µM (inconclusive)"),
    ("Cc1ccc(Cn2nnc3c(O)nc(C4CCCN(C(=O)Nc5ccc(F)cc5F)C4)nc32)cc1 (configuration not stated)", "AC50", "25.1 µM (inconclusive)"),
    ("CN(N=O)c1cc(O)ccc1O", "AC50", "31.6 µM (inconclusive)"),
    ("O=C(C(NS(=O)(=O)c1cccs1)c1ccccc1)N1CCN(c2ccccc2)CC1 (configuration not stated)", "AC50", "25.1 µM (inconclusive)"),
    ("c1ccc(-c2nc(NCc3cccnc3)c3ccccc3n2)cc1", "AC50", "17.8 µM (inconclusive)"),
    ("Cc1ccc(Nc2ncccc2C(=O)NCc2cccs2)c(C)c1", "AC50", "25.1 µM (inconclusive)"),
]

====

biological target: Mitogen-activated protein kinase 10 (Homo sapiens, UniProt P53779); assay: Dose response biochemical screening assay for inhibitors of c-Jun N-Terminal Kinase 3 (JNK3). [Related pubchem assays: 746 ]
Sequence (P53779 whole entry): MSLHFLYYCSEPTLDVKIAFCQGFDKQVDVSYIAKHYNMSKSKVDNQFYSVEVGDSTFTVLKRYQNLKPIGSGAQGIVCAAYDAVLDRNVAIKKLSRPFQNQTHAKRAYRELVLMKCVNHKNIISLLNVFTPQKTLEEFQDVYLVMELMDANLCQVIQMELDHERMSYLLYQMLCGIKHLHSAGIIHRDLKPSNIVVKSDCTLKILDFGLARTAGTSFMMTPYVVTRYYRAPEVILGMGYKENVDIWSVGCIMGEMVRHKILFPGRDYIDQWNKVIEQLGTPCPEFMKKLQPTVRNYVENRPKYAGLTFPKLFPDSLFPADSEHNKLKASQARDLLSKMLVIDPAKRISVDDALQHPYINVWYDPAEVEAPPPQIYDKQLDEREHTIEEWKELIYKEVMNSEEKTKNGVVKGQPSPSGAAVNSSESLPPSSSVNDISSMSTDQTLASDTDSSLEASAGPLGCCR
Observed Property: IC50

# Smiles Input, Obs Value
records = [
    ("O=C1CCCc2nn(-c3ccccc3)c(-c3ccncc3)c21", "42.3 µM (not active)"),
    ("Oc1cc(-c2ccccc2)nc2nc3ccccc3n12", "> 31 µM (not active)"),
    ("COC(=O)c1sccc1NC(=O)CN1CCN(c2ccc(F)cc2)CC1", "15.6 µM (not active)"),
    ("CCOC(=O)c1ccc(Cn2cnc3ccccc3c2=O)cc1", "12.3 µM (not active)"),
]

====

IC50 reference
molecular target: Leucine aminopeptidase (Plasmodium falciparum 3D7, UniProt Q8IL11); assay: P. falciparum M17LAP inhibitors, primary screen, biochemical, fluorogenic H-Leu-NHMec substrate, 1536-well (AID 1619); type: functional
Sequence (Q8IL11 whole entry): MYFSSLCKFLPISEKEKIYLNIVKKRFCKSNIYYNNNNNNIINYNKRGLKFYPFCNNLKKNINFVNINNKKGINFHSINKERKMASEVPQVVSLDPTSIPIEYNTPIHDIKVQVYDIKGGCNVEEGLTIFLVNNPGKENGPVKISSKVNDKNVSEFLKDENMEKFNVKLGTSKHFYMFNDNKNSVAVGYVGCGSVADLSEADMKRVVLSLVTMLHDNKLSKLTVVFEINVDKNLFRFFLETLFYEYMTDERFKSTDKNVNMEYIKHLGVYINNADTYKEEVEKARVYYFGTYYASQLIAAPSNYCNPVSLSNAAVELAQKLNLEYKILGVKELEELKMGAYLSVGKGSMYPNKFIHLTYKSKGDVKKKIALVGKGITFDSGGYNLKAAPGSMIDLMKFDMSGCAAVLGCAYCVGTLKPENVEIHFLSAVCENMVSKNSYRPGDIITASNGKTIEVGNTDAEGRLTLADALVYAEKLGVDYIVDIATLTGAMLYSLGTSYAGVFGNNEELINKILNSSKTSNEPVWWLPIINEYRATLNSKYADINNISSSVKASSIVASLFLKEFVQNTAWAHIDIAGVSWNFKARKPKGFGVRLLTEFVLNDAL
Active and inactive are the calls of the source.
Observed Property: IC50

# Smiles Input, Obs Value
rows = [
    ("O=C(Nc1ccc(Oc2ccc(C(=O)O)c(C(=O)O)c2)cc1)c1cccs1", "30.7 µM (active)"),
    ("O=C(CSc1nc(O)c2ccccc2n1)c1ccc(O)c(O)c1", "13 µM (active)"),
    ("CCN(CC)c1ccc(NC(=O)COC(=O)c2cccs2)cc1", "15.7 µM (active)"),
    ("Cc1occc1C(=O)Nc1sc2c(c1C(N)=O)CCCCC2", "54.6 µM (active)"),
    ("Cc1ccc(Nc2nnc(SCC(=O)c3cc4ccccc4o3)s2)cc1C", "19.8 µM (active)"),
]

====

target: Heat shock protein HSP 90-alpha (Homo sapiens, UniProt P07900); assay type: functional, organism-based
Active and inactive are the calls of the source.
AC50 reference
Observed Property: AC50

# Compound, Test Target, Observed Property, Obs Value
data = [
    ("CCOCCCNC1=C(Cl)C(=O)c2ccccc2C1=O", "Heat shock protein HSP 90-alpha (Homo sapiens, UniProt P07900)", "AC50", "10600 nM (active)"),
    ("O=C1C=C(c2ccc(Cl)cc2)C(=O)N1Nc1ccccc1", "Heat shock protein HSP 90-alpha (Homo sapiens, UniProt P07900)", "AC50", "267 nM (active)"),
    ("O=[N+]([O-])c1ccc(/C=N/c2cccc3ccccc23)s1", "Heat shock protein HSP 90-alpha (Homo sapiens, UniProt P07900)", "AC50", "7990 nM (active)"),
    ("Cc1cc(N2CCN(c3cccc(C)c3C)CC2)nc(-c2ccccc2)n1", "Heat shock protein HSP 90-alpha (Homo sapiens, UniProt P07900)", "AC50", "1660 nM (active)"),
    ("Cc1ccc(S(=O)(=O)Nc2cc(Cl)c(O)c3ncccc23)cc1", "Heat shock protein HSP 90-alpha (Homo sapiens, UniProt P07900)", "AC50", "2380 nM (active)"),
    ("COC(=O)[C@@H]1[C@@H](C#N)C2(c3ccccc3-c3ccccc32)N(c2ccc(Cl)cc2)N1C#N", "Heat shock protein HSP 90-alpha (Homo sapiens, UniProt P07900)", "AC50", "1700 nM (active)"),
    ("O=C(c1ccc(-c2ccccc2)c(F)c1)C1CCCN(C(=O)c2cncs2)C1 (stereo not drawn)", "Heat shock protein HSP 90-alpha (Homo sapiens, UniProt P07900)", "AC50", "7610 nM (active)"),
    ("CCOc1ccc2nc(NC(=O)c3ccoc3C)sc2c1", "Heat shock protein HSP 90-alpha (Homo sapiens, UniProt P07900)", "AC50", "2020 nM (active)"),
]
